- ASSAY COMMENT: Cytotoxicity assay (CellTiter-Glo) on normal human dermal fibroblasts
- Assay type: cell-based
- TEST CONDITIONS: normal human dermal fibroblasts (NHDF), 10 μM, untreated control = 100%, read-out: NHDF Viability 10 μM
Threshold 90%: viability at 72 h, 10 µM strictly smaller gives met, otherwise not met.

Query: Decide: viability at 72 h, 10 µM of O=C(OC[C@H]1CCN1)[C@@H]1[C@H]2C[C@H]3c4[nH]c5ccccc5c4CCN3C[C@@H]2CC[C@@H]1O strictly below 90%?
Reply: not met

Query: Decide: viability at 72 h, 10 µM of O=C(OC1CCCC1)[C@@H]1[C@H]2C[C@H]3c4[nH]c5ccccc5c4CCN3C[C@@H]2CC[C@@H]1O strictly below 90%?
Reply: not met

Query: Decide: viability at 72 h, 10 µM of CC(C)CCOC(=O)[C@@H]1[C@H]2C[C@H]3c4[nH]c5ccccc5c4CCN3C[C@@H]2CC[C@@H]1O strictly below 90%?
Reply: not met

Next:
Query: Decide: viability at 72 h, 10 µM of O=C(OC1CCCNC1)[C@@H]1[C@H]2C[C@H]3c4[nH]c5ccccc5c4CCN3C[C@@H]2CC[C@@H]1O (stereo partly drawn) strictly below 90%?
Reply: met

* * *

- ASSAY COMMENT: Plasma stability assay, rat plasma
- Format: in vitro ADME
Reported remaining at 6 h, 5 μM values for a set of compounds
Answer format: numeric, % implied, no suffix.

Consider the reported remaining at 6 h, 5 μM for these compounds:
Query: I am curious: what remaining at 6 h, 5 μM value has been reported for CC(C)OC(=O)[C@@H]1[C@H]2C[C@H]3c4[nH]c5ccccc5c4CCN3C[C@@H]2CC[C@@H]1O ?
Reply: 89

Query: I am curious: what remaining at 6 h, 5 μM value has been reported for COC(=O)[C@@H]1[C@H]2C[C@H]3c4[nH]c5ccccc5c4CCN3C[C@@H]2CC[C@@H]1O [Compound 1, Yohimbine, reference compound] ?
Reply: 90

Query: I am curious: what remaining at 6 h, 5 μM value has been reported for CCOC(=O)[C@@H]1[C@H]2C[C@H]3c4[nH]c5ccccc5c4CCN3C[C@@H]2CC[C@@H]1O ?
Reply: 52

Query: I am curious: what remaining at 6 h, 5 μM value has been reported for O=C(N[C@H]1CCNC1)[C@@H]1[C@H]2C[C@H]3c4[nH]c5ccccc5c4CCN3C[C@@H]2CC[C@@H]1O ?
Reply: 114

Query: I am curious: what remaining at 6 h, 5 μM value has been reported for O=C(O[C@H]1CCOC1)[C@@H]1[C@H]2C[C@H]3c4[nH]c5ccccc5c4CCN3C[C@@H]2CC[C@@H]1O ?
Reply: 102

Now take the following compound into account.
Query: I am curious: what remaining at 6 h, 5 μM value has been reported for N[C@H]1C[C@@H](OC(=O)[C@@H]2[C@H]3C[C@H]4c5[nH]c6ccccc6c5CCN4C[C@@H]3CC[C@@H]2O)C1 ?
Reply: 75
